- measurement-target: Gamma-secretase
- measurement-protocol: Inhibitory activity against Gamma-secretase in detergent-solubilized HeLa cell membranes with recombinant APP-based substrate
pIC50: −log10 of the molar value.
Classify by measured pIC50: true if it is equal to or exceeds 7, false if it is smaller.

Before answering, review these 6 worked examples.
INSERT INTO results (compound, class_name) VALUES
  ('CC[C@@H](C)[C@@H](NC(=O)[C@H](NC(=O)[C@H](NC(=O)OC(C)(C)C)C(C)C)C(C)C)C(=O)NC(C)(C)C(=O)N[C@@H](C(=O)N[C@@H](C(=O)NC(C)(C)C(=O)N[C@@H](C(=O)N[C@@H](C(=O)NC(C)(C)C(=O)OC)[C@H](C)CC)C(C)C)C(C)C)[C@H](C)OCc1ccccc1', 'true'),
  ('CC[C@H](C)[C@H](NC(=O)[C@@H](NC(=O)[C@@H](NC(=O)C(C)(C)NC(=O)CNC(=O)[C@@H](NC(=O)C(C)(C)NC(=O)[C@H](CC(C)C)NC(=O)OC(C)(C)C)C(C)C)C(C)C)C(C)C)C(=O)NC(C)(C)C(=O)N[C@H](C(=O)N[C@H](C(=O)NC(C)(C)C(=O)N[C@H](C(=O)N[C@H](C(=O)NC(C)(C)C(=O)OC)[C@@H](C)CC)C(C)C)C(C)C)[C@@H](C)OCc1ccccc1', 'false'),
  ('CC[C@H](C)[C@H](NC(=O)[C@@H](NC(=O)[C@@H](NC(=O)C(C)(C)NC(=O)OC(C)(C)C)C(C)C)C(C)C)C(=O)NC(C)(C)C(=O)N[C@H](C(=O)N[C@H](C(=O)NC(C)(C)C(=O)N[C@H](C(=O)N[C@H](C(=O)NC(C)(C)C(=O)OC)[C@@H](C)CC)C(C)C)C(C)C)[C@@H](C)OCc1ccccc1', 'false'),
  ('CC[C@@H](C)[C@@H](NC(=O)[C@H](NC(=O)[C@H](NC(=O)C(C)(C)NC(=O)CNC(=O)[C@H](NC(=O)C(C)(C)NC(=O)[C@@H](CC(C)C)NC(=O)OC(C)(C)C)C(C)C)C(C)C)C(C)C)C(=O)NC(C)(C)C(=O)N[C@@H](C(=O)N[C@@H](C(=O)NC(C)(C)C(=O)N[C@@H](C(=O)N[C@@H](C(=O)NC(C)(C)C(=O)OC)[C@H](C)CC)C(C)C)C(C)C)[C@H](C)OCc1ccccc1', 'true'),
  ('CC[C@H](C)[C@H](NC(=O)[C@@H](NC(=O)[C@@H](NC(=O)OC(C)(C)C)C(C)C)C(C)C)C(=O)NC(C)(C)C(=O)N[C@H](C(=O)N[C@H](C(=O)NC(C)(C)C(=O)N[C@H](C(=O)N[C@H](C(=O)NC(C)(C)C(=O)OC)[C@@H](C)CC)C(C)C)C(C)C)[C@@H](C)OCc1ccccc1', 'false'),
  ('CC[C@H](C)[C@H](NC(=O)[C@@H](NC(=O)[C@@H](NC(=O)C(C)(C)NC(=O)CNC(=O)[C@@H](NC(=O)OC(C)(C)C)C(C)C)C(C)C)C(C)C)C(=O)NC(C)(C)C(=O)N[C@H](C(=O)N[C@H](C(=O)NC(C)(C)C(=O)N[C@H](C(=O)N[C@H](C(=O)NC(C)(C)C(=O)OC)[C@@H](C)CC)C(C)C)C(C)C)[C@@H](C)OCc1ccccc1', 'false');

Shift focus to the following entry.
Does the reported pIC50 for CC[C@@H](C)[C@@H](NC(=O)[C@H](NC(=O)[C@H](NC(=O)C(C)(C)NC(=O)CNC(=O)OC(C)(C)C)C(C)C)C(C)C)C(=O)NC(C)(C)C(=O)N[C@@H](C(=O)N[C@@H](C(=O)NC(C)(C)C(=O)N[C@@H](C(=O)N[C@@H](C(=O)NC(C)(C)C(=O)OC)[C@H](C)CC)C(C)C)C(C)C)[C@H](C)OCc1ccccc1 fall at or above the 7 mark? true

* * *

- measurement-target: Gamma-secretase
- measurement-protocol: Inhibitory activity against Gamma-secretase in detergent-solubilized HeLa cell membranes with recombinant APP-based substrate
endpoint: IC50 (nM)
Numbers only, in nM.

INSERT INTO measurements (mol_smiles, measurement_target, endpoint, experimental_value) VALUES
  ('CC[C@H](C)[C@H](NC(=O)[C@@H](NC(=O)[C@@H](NC(=O)C(C)(C)NC(=O)CNC(=O)OC(C)(C)C)C(C)C)C(C)C)C(=O)NC(C)(C)C(=O)N[C@H](C(=O)N[C@H](C(=O)NC(C)(C)C(=O)N[C@H](C(=O)N[C@H](C(=O)NC(C)(C)C(=O)OC)[C@@H](C)CC)C(C)C)C(C)C)[C@@H](C)OCc1ccccc1', 'Gamma-secretase', 'IC50', 360),
  ('CC[C@H](C)[C@H](NC(=O)[C@@H](NC(=O)[C@@H](NC(=O)C(C)(C)NC(=O)CNC(=O)[C@@H](NC(=O)C(C)(C)NC(=O)[C@H](CC(C)C)NC(=O)CNC(=O)OC(C)(C)C)C(C)C)C(C)C)C(C)C)C(=O)NC(C)(C)C(=O)N[C@H](C(=O)N[C@H](C(=O)NC(C)(C)C(=O)N[C@H](C(=O)N[C@H](C(=O)NC(C)(C)C(=O)OC)[C@@H](C)CC)C(C)C)C(C)C)[C@@H](C)OCc1ccccc1', 'Gamma-secretase', 'IC50', 11000);

Then this molecule:
Lab note: measured IC50 of CC[C@@H](C)[C@@H](NC(=O)[C@H](NC(=O)[C@H](NC(=O)C(C)(C)NC(=O)CNC(=O)[C@H](NC(=O)C(C)(C)NC(=O)[C@@H](CC(C)C)NC(=O)CNC(=O)OC(C)(C)C)C(C)C)C(C)C)C(C)C)C(=O)NC(C)(C)C(=O)N[C@@H](C(=O)N[C@@H](C(=O)NC(C)(C)C(=O)N[C@@H](C(=O)N[C@@H](C(=O)NC(C)(C)C(=O)OC)[C@H](C)CC)C(C)C)C(C)C)[C@H](C)OCc1ccccc1 was 26

* * *

- measurement-target: Gamma-secretase
- measurement-protocol: Inhibitory activity against Gamma-secretase in detergent-solubilized HeLa cell membranes with recombinant APP-based substrate
endpoint: IC50 (nM)
Answers are plain numbers, in nM.

Value sought: IC50, system Gamma-secretase, item CC[C@@H](C)[C@@H](NC(=O)[C@H](NC(=O)[C@H](NC(=O)C(C)(C)NC(=O)CNC(=O)[C@H](NC(=O)C(C)(C)NC(=O)OC(C)(C)C)C(C)C)C(C)C)C(C)C)C(=O)NC(C)(C)C(=O)N[C@@H](C(=O)N[C@@H](C(=O)NC(C)(C)C(=O)N[C@@H](C(=O)N[C@@H](C(=O)NC(C)(C)C(=O)OC)[C@H](C)CC)C(C)C)C(C)C)[C@H](C)OCc1ccccc1 . Result: 14

* * *

- measurement-target: Gamma-secretase
- measurement-protocol: Inhibitory activity against Gamma-secretase in detergent-solubilized HeLa cell membranes with recombinant APP-based substrate
endpoint: pIC50
Numbers only, as −log10 of the molar value.

Please review the following examples before continuing.
INSERT INTO assay_data (compound, endpoint, experimental_value) VALUES
  ('CC[C@@H](C)[C@@H](NC(=O)[C@H](NC(=O)[C@H](NC(=O)C(C)(C)NC(=O)CNC(=O)[C@H](NC(=O)OC(C)(C)C)C(C)C)C(C)C)C(C)C)C(=O)NC(C)(C)C(=O)N[C@@H](C(=O)N[C@@H](C(=O)NC(C)(C)C(=O)OC)C(C)C)[C@H](C)OCc1ccccc1', 'pIC50', 7.05),
  ('CC[C@H](C)[C@H](NC(=O)[C@@H](NC(=O)[C@@H](NC(=O)C(C)(C)NC(=O)CNC(=O)[C@@H](NC(=O)C(C)(C)NC(=O)OC(C)(C)C)C(C)C)C(C)C)C(C)C)C(=O)NC(C)(C)C(=O)N[C@H](C(=O)N[C@H](C(=O)NC(C)(C)C(=O)N[C@H](C(=O)N[C@H](C(=O)NC(C)(C)C(=O)OC)[C@@H](C)CC)C(C)C)C(C)C)[C@@H](C)OCc1ccccc1', 'pIC50', 6.04),
  ('CC[C@@H](C)[C@@H](NC(=O)[C@H](NC(=O)[C@H](NC(=O)C(C)(C)NC(=O)CNC(=O)[C@H](NC(=O)OC(C)(C)C)C(C)C)C(C)C)C(C)C)C(=O)NC(C)(C)C(=O)N[C@@H](C(=O)N[C@@H](C(=O)NC(C)(C)C(=O)N[C@@H](C(=O)N[C@@H](C(=O)NC(C)(C)C(=O)OC)[C@H](C)CC)C(C)C)C(C)C)[C@H](C)OCc1ccccc1', 'pIC50', 9.85),
  ('CC[C@@H](C)[C@@H](NC(=O)[C@H](NC(=O)[C@H](NC(=O)C(C)(C)NC(=O)OC(C)(C)C)C(C)C)C(C)C)C(=O)NC(C)(C)C(=O)N[C@@H](C(=O)N[C@@H](C(=O)NC(C)(C)C(=O)N[C@@H](C(=O)N[C@@H](C(=O)NC(C)(C)C(=O)OC)[C@H](C)CC)C(C)C)C(C)C)[C@H](C)OCc1ccccc1 (single isomer, unassigned)', 'pIC50', 7.55);

Then this compound:
Lab note: measured pIC50 of CC[C@H](C)[C@H](NC(=O)[C@@H](NC(=O)[C@@H](NC(=O)C(C)(C)NC(=O)CNC(=O)[C@@H](NC(=O)OC(C)(C)C)C(C)C)C(C)C)C(C)C)C(=O)NC(C)(C)C(=O)N[C@H](C(=O)N[C@H](C(=O)NC(C)(C)C(=O)OC)C(C)C)[C@@H](C)OCc1ccccc1 was 4.52
